Reported T½ is given for each of the following molecules.
Molecular target: T1, hPRLR.mmh (soluble monomeric human PRLR) (Homo sapiens, UniProt P16471)
T1 construct: soluble monomeric (hPRLR.mmh); mmh (myc-myc-hexahistidine)
T1 sequence (P16471 with tags, fused parts or gaps): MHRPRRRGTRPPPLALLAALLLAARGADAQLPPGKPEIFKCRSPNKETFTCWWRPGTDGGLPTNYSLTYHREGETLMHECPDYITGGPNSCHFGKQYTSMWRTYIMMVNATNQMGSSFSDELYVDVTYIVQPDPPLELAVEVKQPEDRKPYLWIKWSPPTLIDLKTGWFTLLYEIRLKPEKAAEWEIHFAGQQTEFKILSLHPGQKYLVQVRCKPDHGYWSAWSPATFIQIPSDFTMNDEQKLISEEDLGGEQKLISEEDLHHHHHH
Assay: Surface plasmon resonance (Biacore T200), mAb-capture format
Type: binding
Details: 37° C., antibody-capture format, analyte hPRLR.mmh
MEASURED_ENDPOINT: T½ (min)

1) H1H6953N: human IgG1 Fc form of H1M6953N; anti-PRLR; HCVR/LCVR SEQ ID NOs 274/282 (antibody, V domains shown, human IgG1 Fc) VH: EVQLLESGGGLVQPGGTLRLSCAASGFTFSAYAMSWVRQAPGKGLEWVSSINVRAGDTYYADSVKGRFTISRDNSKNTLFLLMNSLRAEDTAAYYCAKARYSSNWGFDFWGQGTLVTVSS VL: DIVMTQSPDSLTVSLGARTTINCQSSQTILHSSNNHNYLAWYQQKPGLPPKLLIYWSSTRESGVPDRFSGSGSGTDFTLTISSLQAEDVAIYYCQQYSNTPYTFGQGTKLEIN	9.4
2) H1H6765P: anti-PRLR antibody, human IgG1 Fc; HCVR/LCVR SEQ ID NOs 18/26 (antibody, V domains shown, human IgG1 Fc) VH: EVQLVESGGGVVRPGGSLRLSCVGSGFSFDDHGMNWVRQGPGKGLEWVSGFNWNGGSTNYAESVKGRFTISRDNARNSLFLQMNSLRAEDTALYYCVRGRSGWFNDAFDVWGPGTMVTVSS VL: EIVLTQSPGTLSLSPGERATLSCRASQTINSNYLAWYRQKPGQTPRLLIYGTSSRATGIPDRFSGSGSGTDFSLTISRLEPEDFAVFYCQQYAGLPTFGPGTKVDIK	32
3) H1H6803P: anti-PRLR antibody, human IgG1 Fc; HCVR/LCVR SEQ ID NOs 226/234 (antibody, V domains shown, human IgG1 Fc) VH: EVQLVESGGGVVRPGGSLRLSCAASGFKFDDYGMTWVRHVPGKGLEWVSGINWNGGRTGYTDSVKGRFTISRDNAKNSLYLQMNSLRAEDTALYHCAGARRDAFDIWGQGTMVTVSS VL: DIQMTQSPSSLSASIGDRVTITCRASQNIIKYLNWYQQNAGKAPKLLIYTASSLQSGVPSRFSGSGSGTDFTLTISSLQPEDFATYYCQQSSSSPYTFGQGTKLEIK	32
4) H1H6967N: human IgG1 Fc form of H2M6967N; anti-PRLR; HCVR/LCVR SEQ ID NOs 354/362 (antibody, V domains shown, human IgG1 Fc) VH: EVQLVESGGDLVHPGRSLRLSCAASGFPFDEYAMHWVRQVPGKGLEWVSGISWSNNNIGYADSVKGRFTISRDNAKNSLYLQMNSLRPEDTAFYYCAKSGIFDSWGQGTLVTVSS VL: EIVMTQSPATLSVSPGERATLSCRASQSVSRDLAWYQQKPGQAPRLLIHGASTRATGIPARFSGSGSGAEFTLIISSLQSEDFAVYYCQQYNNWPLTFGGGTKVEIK	12.4
5) H1H6762P: anti-PRLR antibody, human IgG1 Fc; HCVR/LCVR SEQ ID NOs 2/10 (antibody, V domains shown, human IgG1 Fc) VH: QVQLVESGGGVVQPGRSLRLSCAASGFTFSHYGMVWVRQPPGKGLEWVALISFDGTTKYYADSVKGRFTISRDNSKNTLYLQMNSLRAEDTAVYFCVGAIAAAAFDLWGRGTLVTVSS VL: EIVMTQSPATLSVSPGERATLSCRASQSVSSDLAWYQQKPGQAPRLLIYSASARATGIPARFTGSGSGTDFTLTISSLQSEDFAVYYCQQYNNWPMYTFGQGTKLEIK	25
